- ASSAYED_TARGET: full length Keap1 protein / full length NRF2 protein (Homo sapiens, UniProt Q14145)
- Construct: full length NRF2 protein and full length Keap1 protein (Keap1 exists a dimer) are used
- Sequence (Q14145 whole entry): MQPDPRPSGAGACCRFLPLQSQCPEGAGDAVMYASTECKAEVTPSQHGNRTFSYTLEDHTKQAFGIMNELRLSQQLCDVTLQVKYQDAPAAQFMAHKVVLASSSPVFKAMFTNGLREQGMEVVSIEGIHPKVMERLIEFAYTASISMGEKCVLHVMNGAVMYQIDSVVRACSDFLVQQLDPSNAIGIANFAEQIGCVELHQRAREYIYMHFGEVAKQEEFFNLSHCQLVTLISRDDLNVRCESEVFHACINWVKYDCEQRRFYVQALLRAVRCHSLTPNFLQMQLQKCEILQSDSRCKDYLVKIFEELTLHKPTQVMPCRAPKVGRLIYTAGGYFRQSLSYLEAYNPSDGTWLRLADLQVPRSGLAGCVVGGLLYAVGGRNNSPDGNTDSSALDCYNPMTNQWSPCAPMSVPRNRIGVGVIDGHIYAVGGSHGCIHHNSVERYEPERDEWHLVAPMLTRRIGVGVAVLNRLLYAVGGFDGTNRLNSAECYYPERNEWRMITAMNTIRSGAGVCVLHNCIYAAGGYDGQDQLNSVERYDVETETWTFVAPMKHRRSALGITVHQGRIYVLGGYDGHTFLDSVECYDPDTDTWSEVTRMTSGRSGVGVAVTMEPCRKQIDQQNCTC
- ASSAY_DETAILS: NRF2-Keap1 TR-FRET assay
- SETTINGS: full length Keap1-FlagHis and biotin-NRF2
VALUE_KIND: IC50 (nM)
Give bare numbers, in nM.

The cases that follow already have their IC50 on record.
CC[C@@H]1CN(Cc2cc([C@@H](CC(=O)O)c3ccc4c(nnn4C)c3C)ccc2C)Cc2ncccc2O1 [Formula (I) R-beta-stereocenter isomer]: 16
CC[C@@H]1CN(Cc2cc([C@H](CC(=O)O)c3ccc4c(nnn4C)c3C)ccc2C)Cc2ncccc2O1 [S-beta-stereocenter isomer]: 12

Problem: Identify the reported IC50 for the following entry. CC[C@@H]1CN(Cc2cc(C(CC(=O)O)c3ccc4c(nnn4C)c3C)ccc2C)Cc2ncccc2O1 (mixture of isomers) [Beta-stereocenter 50/50 mixture]
Result: 25

* * *

- ASSAYED_TARGET: Kelch domain (321-609) of Keap1 / TAMRA-labeled NRF2 ETGE peptide (Homo sapiens)
- Construct: the Kelch domain (321-609) of Keap1 is used
- Sequence (Q14145 321-609): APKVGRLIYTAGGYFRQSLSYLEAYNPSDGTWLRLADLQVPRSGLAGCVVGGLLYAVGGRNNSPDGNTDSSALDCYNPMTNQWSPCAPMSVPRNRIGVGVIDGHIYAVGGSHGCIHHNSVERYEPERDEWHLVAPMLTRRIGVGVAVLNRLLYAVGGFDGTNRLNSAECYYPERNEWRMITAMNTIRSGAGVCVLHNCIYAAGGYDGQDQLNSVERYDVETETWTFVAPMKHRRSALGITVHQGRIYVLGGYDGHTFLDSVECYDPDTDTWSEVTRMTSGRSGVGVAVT
- ASSAY_DETAILS: NRF2-Keap1 FP assay (Keap1 Kelch fluorescence polarization)
- SETTINGS: Keap1 (321-609) 20 nM, Tamra labelled peptide 8 nM
VALUE_KIND: pIC50
Answers are plain numbers, as −log10 of the molar value.

CC[C@@H]1CN(Cc2cc([C@H](CC(=O)O)c3ccc4c(nnn4C)c3C)ccc2C)Cc2ncccc2O1 [S-beta-stereocenter isomer]: 7.30
CC[C@@H]1CN(Cc2cc(C(CC(=O)O)c3ccc4c(nnn4C)c3C)ccc2C)Cc2ncccc2O1 (mixture of isomers) [Beta-stereocenter 50/50 mixture]: 7.20

Consider now this further compound.
Problem: Identify the reported pIC50 for the following entry. CC[C@@H]1CN(Cc2cc([C@@H](CC(=O)O)c3ccc4c(nnn4C)c3C)ccc2C)Cc2ncccc2O1 [Formula (I) R-beta-stereocenter isomer]
Result: 7.40

Ref: patent US11028099B2
